melting temperature values by entry
- Test name: melting temperature (DSF); higher = more thermostable
Give your result in C as a bare value.

>  <Residue string>
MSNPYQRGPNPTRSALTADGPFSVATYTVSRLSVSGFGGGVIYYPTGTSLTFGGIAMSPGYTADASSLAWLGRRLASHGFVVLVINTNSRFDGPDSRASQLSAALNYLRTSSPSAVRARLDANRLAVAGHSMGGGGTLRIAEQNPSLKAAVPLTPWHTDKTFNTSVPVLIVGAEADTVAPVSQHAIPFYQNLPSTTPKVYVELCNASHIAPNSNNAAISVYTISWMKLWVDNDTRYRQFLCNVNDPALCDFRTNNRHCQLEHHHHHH [LCC-ICCG]

>  <Measured property>
melting temperature

>  <Value observed>
93.6

$$$$

Memo: ADNPYQRGPNPTAASIAATTGPFAIASVSVARGNGFGGGVIYYPTDTSQGTFGAIAISPGLNGTWPGIAWLGPRLASQGFVVFGIETNNLNDSPTSRGTQLLAALDYLTQRSSVRTRVDATRLAVAGHSMGGGGALDAALRRPSLQAAIGNAPYLPSGNLSTDRVPTLIYAMQNDTLVPPSRLTTMYNTIPATTERGYIQITGAGHNYIGQPSTNLARTMIPWFKIFIDNDTRFSQFLCPLSNMSGISQYRNSCPLI [ESM159] , reported melting temperature: 57.4

Memo: ANPYERGPNPTQALLEARSGPFSVSSERAWRLGSDGFGGGTIYYPRENNTYGAVAISPGYTGTQASVAWLGERIASHGFVVITIDTNTTLDQPDSRADQLEAALDHMVDGASSTVRSRIDRNRLAVMGHSMGGGGTLRLASQRPDLKAAIPLTPWHLNKSWSNVQVPTLIIGADLDTIAPVLTHAEPFYNSIPTSTRKAYLELDGATHFAPNITNSTIGMYSVAWLKRFVDEDTRYTQFLCPGPRTGLFSDVEEYRSTCPF [TEP014] , reported melting temperature: 54.1
